Below, each of the compounds is paired with its reported Ratio_ATPase activity value.
- target_system: ATP-dependent translocase ABCB1 (Homo sapiens, UniProt P08183)
- Sequence (P08183 whole entry): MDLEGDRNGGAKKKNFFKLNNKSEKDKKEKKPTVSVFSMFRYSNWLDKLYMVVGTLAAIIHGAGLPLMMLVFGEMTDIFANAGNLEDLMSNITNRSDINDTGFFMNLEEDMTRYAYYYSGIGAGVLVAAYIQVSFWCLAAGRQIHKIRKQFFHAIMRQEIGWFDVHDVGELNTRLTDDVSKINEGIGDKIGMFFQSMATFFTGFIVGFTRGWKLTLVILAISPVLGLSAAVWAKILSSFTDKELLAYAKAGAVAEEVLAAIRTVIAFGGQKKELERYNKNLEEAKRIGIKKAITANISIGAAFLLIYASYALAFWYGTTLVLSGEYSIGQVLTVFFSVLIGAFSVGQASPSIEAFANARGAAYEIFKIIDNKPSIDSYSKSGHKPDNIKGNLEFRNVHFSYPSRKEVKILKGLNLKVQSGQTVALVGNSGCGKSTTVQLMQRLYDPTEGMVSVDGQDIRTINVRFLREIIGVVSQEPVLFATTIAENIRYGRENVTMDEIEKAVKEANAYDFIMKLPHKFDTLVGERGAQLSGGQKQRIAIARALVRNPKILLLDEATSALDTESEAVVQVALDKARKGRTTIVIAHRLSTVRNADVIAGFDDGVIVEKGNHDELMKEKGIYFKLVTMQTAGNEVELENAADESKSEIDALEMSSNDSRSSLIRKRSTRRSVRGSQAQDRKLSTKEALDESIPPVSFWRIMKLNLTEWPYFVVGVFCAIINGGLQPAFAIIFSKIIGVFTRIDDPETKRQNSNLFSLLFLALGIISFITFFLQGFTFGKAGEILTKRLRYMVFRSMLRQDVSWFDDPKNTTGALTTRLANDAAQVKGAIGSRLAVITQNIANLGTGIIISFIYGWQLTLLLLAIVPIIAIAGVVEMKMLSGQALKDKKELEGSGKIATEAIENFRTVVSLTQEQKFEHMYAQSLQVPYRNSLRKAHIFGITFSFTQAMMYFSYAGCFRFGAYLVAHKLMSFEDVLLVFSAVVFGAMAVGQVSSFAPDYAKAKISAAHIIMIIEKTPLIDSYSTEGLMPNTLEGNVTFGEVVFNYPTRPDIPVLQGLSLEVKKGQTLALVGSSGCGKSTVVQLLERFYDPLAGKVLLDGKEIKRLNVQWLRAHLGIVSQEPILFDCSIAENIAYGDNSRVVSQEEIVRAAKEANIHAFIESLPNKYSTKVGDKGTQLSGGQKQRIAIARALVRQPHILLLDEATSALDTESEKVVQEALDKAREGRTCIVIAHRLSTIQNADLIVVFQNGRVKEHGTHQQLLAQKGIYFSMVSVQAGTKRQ
- reported_conditions: spodoptera frugiperda, sf9, 20 µM
measure: Ratio_ATPase activity

1. COC(=O)Nc1nc2ccc(C(=O)c3ccccc3)cc2[nH]1 [MEBENDAZOLE] | 2
2. COC(=O)[C@@H]1[C@H]2C[C@H]3c4[nH]c5ccccc5c4CCN3C[C@@H]2CC[C@@H]1O [YOHIMBINE] | 1.05
3. CNS(=O)(=O)Cc1ccc2[nH]cc(CCN(C)C)c2c1 | 1.23
4. COc1ccc([C@@H]2Sc3ccccc3N(CCN(C)C)C(=O)[C@@H]2OC(C)=O)cc1 [DILTIAZEM] | 2.64
5. COc1cc2nc(N3CCN(C(=O)c4ccco4)CC3)nc(N)c2cc1OC [PRAZOSIN] | 3.4
6. C[C@@H]1C[C@H]2[C@@H]3CCC4=CC(=O)C=C[C@]4(C)[C@@]3(F)[C@@H](O)C[C@]2(C)[C@@]1(O)C(=O)CO [DEXAMETHASONE] | 1.15
7. CC[C@]1(O)C[C@H]2CN(CCc3c([nH]c4ccccc34)[C@@](C(=O)OC)(c3cc4c(cc3OC)N(C=O)[C@H]3[C@@](O)(C(=O)OC)[C@H](OC(C)=O)[C@]5(CC)C=CCN6CC[C@]43[C@@H]65)C2)C1 [VINCRISTINE] | 1.46

* * *

- target_system: ATP-dependent translocase ABCB1 (Homo sapiens, UniProt P08183)
- reported_conditions: spodoptera frugiperda, sf9, 20 µM
measure: Ratio_ATPase activity

1) CC[C@@]1([C@@H]2O[C@@H]([C@H]3O[C@@](O)(CO)[C@H](C)C[C@@H]3C)C[C@@H]2C)CC[C@H]([C@]2(C)CC[C@]3(C[C@H](O)[C@@H](C)[C@@H]([C@@H](C)[C@@H](OC)[C@H](C)C(=O)O)O3)O2)O1 | 6.71
2) Cc1ncc2n1-c1ccc(Cl)cc1C(c1ccccc1F)=NC2 | 3.82
3) CN(Cc1cnc2nc(N)nc(N)c2n1)c1ccc(C(=O)N[C@@H](CCC(=O)O)C(=O)O)cc1 [METHOTREXATE] | 0.91

* * *

- target_system: ATP-dependent translocase ABCB1 (MDR1) (Homo sapiens, UniProt P08183)
- Sequence (P08183 whole entry): as above
- experiment_notes: in vitro
- reported_conditions: dog, MDCK-MDR1
measure: Papp B→A (×10⁻⁶ cm/s)

1) CN/C(=N/CCSCc1nc[nH]c1C)NC#N [CIMETIDINE] | 2.69
2) CN(C)C(=O)Oc1ccc[n+](C)c1 [PYRIDOSTIGMINE] | 1.26
3) C[C@]12CC[C@H]3[C@@H](CCC4=CC(=O)CC[C@@]43C)[C@@H]1CC[C@@H]2O [TESTOSTERONE] | 66.8
4) CN(C)C(=O)Oc1cccc([N+](C)(C)C)c1.[Br-] [NEOSTIGMINE BROMIDE] | 1.37
5) CC[C@@]1([C@@H]2O[C@@H]([C@H]3O[C@@](O)(CO)[C@H](C)C[C@@H]3C)C[C@@H]2C)CC[C@H]([C@]2(C)CC[C@]3(C[C@H](O)[C@@H](C)[C@@H]([C@@H](C)[C@@H](OC)[C@H](C)C(=O)O)O3)O2)O1 [MONENSIN] | 29.4
